System: rodent lifetime carcinogenesis bioassay, tumor incidence TD50
TEST_METHOD_NOTES: carcinogenic potency in animals, long-term in vivo studies, CPDB compilation (AID 1745844)
EXPERIMENTAL_CONDITIONS: mouse; strain B6C3F1; females; inhaled; site: all sites; lesion: hemangioma + hemangiosarcoma; dosed 103 weeks; study length 104 weeks
ENDPOINT_NAME: TD50 (mg/kg/day)
Record the value in mg/kg/day, omitting the unit from your answer.

Reported TD50 ( CC1CO1 (stereo unspecified) ) = 863

====

System: rodent lifetime carcinogenesis bioassay, tumor incidence TD50
TEST_METHOD_NOTES: carcinogenic potency in animals, long-term in vivo studies, CPDB compilation (AID 1745844)
EXPERIMENTAL_CONDITIONS: rat; strain Fischer 344; males; in feed; site: urinary bladder; lesion: squamous-cell papilloma; dosed 27 weeks; study length 104 weeks
ENDPOINT_NAME: TD50

Record for COc1ccccc1[N+](=O)[O-] under target or system rodent lifetime carcinogenesis bioassay, tumor incidence TD50: TD50 reported as 482 mg/kg/day
